B1: IKZF1 (parent)
chain: RDPFECNMCGYHSQDRYEFSSHIT

# Variants of: B1
# METHOD NOTES: protein stability index of a GFP-peptide fusion (GPS, HEK-293T) (PSI 1-6); higher = more stable;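 also: lentivirally expressed fusions sorted by FACS into six bins by GFP to DsRed ratio, PSI derived from sequencing read proportions per bin multiplied by bin number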
# CONDITION INFO: c terminus: a fixed tail appended
Below, each of the variants is paired with its reported protein stability index value.
Reply with just the number.

VARIANT | protein stability index
Q14K | 1.97
C6L | 1.99
S20G | 2.05

As a next step, examine the variant that follows.
Consider the variant D15P and give its measured protein stability index.
2.01
